Reference source: patent US8288371B2

# Measurement target: UniProtKB P32246
# Sequence (P32246 1-355): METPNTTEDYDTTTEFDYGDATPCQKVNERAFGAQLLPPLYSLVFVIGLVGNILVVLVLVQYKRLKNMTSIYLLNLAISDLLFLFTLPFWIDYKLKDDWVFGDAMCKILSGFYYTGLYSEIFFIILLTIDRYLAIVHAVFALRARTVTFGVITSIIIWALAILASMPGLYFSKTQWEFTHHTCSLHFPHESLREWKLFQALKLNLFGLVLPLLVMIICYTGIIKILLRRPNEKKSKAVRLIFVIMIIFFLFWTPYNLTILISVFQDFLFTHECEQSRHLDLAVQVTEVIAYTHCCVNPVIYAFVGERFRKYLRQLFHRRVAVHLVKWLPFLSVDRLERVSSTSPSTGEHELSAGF
Quantity: IC50

In: Which measured IC50 value corresponds to Cc1cc(Cl)cc(C)c1NC(=O)N1CCC[C@@H]1c1nnc(C)n1Cc1ccc(Cl)cc1 ?
Out: < 50 nM

In: Need IC50, item O=C(Nc1ccc(Cl)c(C(F)(F)F)c1)N1CCC[C@@H]1c1nccn1Cc1ccc(Cl)cc1
Out: 50 to 500 nM

In: Which IC50 reading was recorded for the molecule O=C(Nc1ccc(Cl)cc1F)N1CCC[C@@H]1c1ncnn1Cc1ccc(Cl)cc1 ?
Out: 50 to 500 nM

In: Reported IC50, molecule Cc1nnc([C@H]2C[C@H](O)CN2C(=O)Nc2ccc(C(F)(F)F)cc2)n1Cc1ccc(Cl)cc1 : ____
Out: 50 to 500 nM

In: May I ask what IC50 has been recorded for Cc1nnc([C@H]2CCCN2C(=O)N[C@H]2CCOc3cc(C(F)(F)F)ccc32)n1C1(c2ccc(Cl)cc2)CC1 ?
Out: 50 to 500 nM

In: For the molecule shown here, Cc1nnc([C@H]2C[C@H](O)CN2C(=O)N[C@@H](C)c2ccc(Cl)cc2)n1Cc1ccc(Cl)cc1 , give the reported IC50.
Out: < 50 nM

In: Quick check: IC50 of Cc1nnc([C@H]2CCCN2C(=O)N[C@@H]2CCc3cc(Cl)ccc32)n1Cc1ccc(Cl)cc1 ?
Out: 50 to 500 nM

In: # input molecule: CSc1ccc(NC(=O)N2CCC[C@@H]2c2nccn2Cc2ccc(Cl)cc2)cc1 ; wanted: its IC50
Out: < 50 nM

In: Please report the recorded IC50 for Cc1nnc([C@H]2CCCN2C(=O)Nc2cc(C(=O)O)ccc2C(F)(F)F)n1Cc1ccc(Cl)cc1 .
Out: 500 to 5000 nM

In: Quick one: IC50 for Cc1ccc(C(=O)O)cc1NC(=O)N1CCC[C@@H]1c1nnc(C)n1Cc1ccc(Cl)cc1 ?
Out: 50 to 500 nM

In: // query IC50 value for entry Cc1nnc([C@H]2CCCN2C(=O)NCC2CCN(S(C)(=O)=O)CC2)n1Cc1ccc(Cl)cc1
Out: 50 to 500 nM

In: Requested field: IC50. Item: O=C(Nc1ccc2occc2c1)N1CCC[C@@H]1c1ncnn1Cc1ccc(Cl)cc1
Out: 50 to 500 nM

In: IC50 lookup needed for Cc1nnc([C@H]2CCCN2C(=O)N[C@H]2CCOc3cc(C(F)(F)F)ccc32)n1Cc1cccc(Br)c1 , thanks.
Out: 500 to 5000 nM

In: So what does the record say about IC50 for Cc1nnc([C@H]2C[C@@H](O)CN2C(=O)N[C@H]2CCOc3cc(C(F)(F)F)ccc32)n1Cc1ccc(Cl)cc1 ?
Out: < 50 nM

In: // lookup IC50 for Cc1nnc([C@H]2CCCN2c2c(Nc3ccc(Cl)cc3F)c(=O)c2=O)n1Cc1ccc(Cl)cc1
Out: 500 to 5000 nM

In: Query (molecule): Cc1nnc([C@H]2CCCN2C(=O)N[C@H]2CCS(=O)(=O)c3ccc(Cl)cc32)n1Cc1ccc(Cl)cc1 ; field requested: IC50
Out: < 50 nM

In: Any idea what its IC50 is? The molecule is Cc1nnc([C@H]2CCCN2C(=O)NC2COCc3c(F)cccc32)n1Cc1ccc(Cl)cc1 (stereo partly drawn)
Out: 50 to 500 nM

In: Entry Cc1nnc([C@H]2CCCN2C(=O)N[C@@H](C)c2nc3ccccc3o2)n1Cc1ccc(Cl)cc1 has what IC50?
Out: 50 to 500 nM

In: Please report the recorded IC50 for Cc1noc(-c2ccccc2)c1NC(=O)N1CCC[C@@H]1c1nncn1Cc1ccc(Cl)cc1 .
Out: < 50 nM

In: Consider the molecule Cc1onc(-c2ccc(F)cc2)c1NC(=O)N1CCC[C@@H]1c1nnc(C)n1Cc1ccc(Cl)cc1 and give its measured IC50.
Out: < 50 nM

In: Requested read-out: IC50. Entry: O=C(N[C@H]1CCCc2ccccc21)N1CCC[C@@H]1c1nccn1Cc1ccc(Cl)cc1
Out: < 50 nM

In: Field request: IC50 | item: Cc1c(NC(=O)N2CCC[C@@H]2c2nnc(C)n2Cc2ccc(Cl)cc2)ccc(C#N)c1Cl
Out: < 50 nM

In: State the recorded IC50 for this entry: Cc1cc(C)c(S(=O)(=O)O)cc1NC(=O)N1CCC[C@@H]1c1nnc(C)n1Cc1ccc(Cl)cc1
Out: 50 to 500 nM

In: For Cc1cc(C(=O)O)ccc1NC(=O)N1CCC[C@@H]1c1nnc(C)n1Cc1ccc(Cl)cc1 , what is its reported IC50?
Out: 50 to 500 nM

In: What does the record list as IC50 for NC(=O)c1nnc([C@H]2CCCN2C(=O)N[C@H]2CCOc3cc(C(F)(F)F)ccc32)n1Cc1ccc(Cl)cc1 ?
Out: 500 to 5000 nM

In: Item Cc1nnc([C@H]2CCCN2C(=O)Nc2ccc(Cl)cc2F)n1[C@H](C)c1ccc(Cl)cc1 has what recorded IC50?
Out: 50 to 500 nM

In: Look at this molecule and give its reported IC50. Cc1nnc([C@H]2CCCN2C(=O)Cc2ccc(Cl)cc2)n1Cc1ccc(Cl)cc1
Out: 50 to 500 nM

In: Would you mind telling me what IC50 value was observed for CC(=O)O[C@@H]1C[C@H](c2ncnn2Cc2ccc(Cl)cc2)N(C(=O)N[C@H]2CCOc3cc(C(F)(F)F)ccc32)C1 ?
Out: < 50 nM

In: Would you mind telling me what IC50 value was observed for CC(=O)O[C@@H]1C[C@H](c2nnc(C)n2Cc2ccc(Cl)cc2)N(C(=O)Nc2ccc(C(F)(F)F)nc2Cl)C1 ?
Out: 50 to 500 nM

In: Fill blank: measured IC50 of the molecule Cc1nnc([C@H]2CCCN2C(=O)Nc2cc(Cl)ccc2F)n1Cc1ccc(Cl)cc1 is ____.
Out: 50 to 500 nM
